OBSERVABLE: melting point

COMPOUND: O=C(c1ccc2c(c1)C(=O)N1CCC[C@H]1CO2)N1CCCCC1 [Example 15]
EXPERIMENTAL_RESULT: 140 to 140.5 °C
//
COMPOUND: O=C1c2cccc(Cl)c2OC[C@@H]2CCCN12 [Example 8]
EXPERIMENTAL_RESULT: 89 to 90 °C
//
COMPOUND: O=C1c2ccc(Cl)cc2OC[C@H]2CCCN12 [Example 4]
EXPERIMENTAL_RESULT: 92 to 94 °C
//
COMPOUND: N#Cc1ccc2c(c1)C(=O)N1CCC[C@@H]1CO2 [Example 19]
EXPERIMENTAL_RESULT: 164 to 165 °C
//
COMPOUND: O=C1c2ccc(F)cc2OC[C@@H]2CCCN12 [Example 5]
EXPERIMENTAL_RESULT: 75 to 76 °C
